Biological target: T1, ECF15_436
T1 chain: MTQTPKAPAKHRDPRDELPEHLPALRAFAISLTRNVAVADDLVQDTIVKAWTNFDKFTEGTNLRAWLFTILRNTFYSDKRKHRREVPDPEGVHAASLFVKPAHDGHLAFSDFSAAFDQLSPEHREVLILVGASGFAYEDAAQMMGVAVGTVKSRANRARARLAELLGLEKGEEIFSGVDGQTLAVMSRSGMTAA
Value type: fold repression
Respond with the number and no other words.

Consider the following illustrative entries.
- Binder: "AS22_4450 (protein) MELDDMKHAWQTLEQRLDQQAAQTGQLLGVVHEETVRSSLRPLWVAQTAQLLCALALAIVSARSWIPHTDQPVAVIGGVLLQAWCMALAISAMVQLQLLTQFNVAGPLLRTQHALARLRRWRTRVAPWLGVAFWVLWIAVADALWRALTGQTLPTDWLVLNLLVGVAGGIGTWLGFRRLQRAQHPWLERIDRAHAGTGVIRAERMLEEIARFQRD"
  Value type: "fold repression"
  Assay value: 1.41
- Binder: "AS16_3622 (protein) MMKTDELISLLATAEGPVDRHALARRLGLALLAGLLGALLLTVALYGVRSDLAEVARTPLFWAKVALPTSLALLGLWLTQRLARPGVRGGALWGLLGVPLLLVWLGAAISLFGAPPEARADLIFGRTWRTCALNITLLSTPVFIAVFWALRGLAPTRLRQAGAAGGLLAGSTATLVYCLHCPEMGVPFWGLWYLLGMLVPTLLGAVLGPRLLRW"
  Value type: "fold repression"
  Assay value: 4.75

// switching to the query binder
stdin: Report fold repression for AS33_423 (protein) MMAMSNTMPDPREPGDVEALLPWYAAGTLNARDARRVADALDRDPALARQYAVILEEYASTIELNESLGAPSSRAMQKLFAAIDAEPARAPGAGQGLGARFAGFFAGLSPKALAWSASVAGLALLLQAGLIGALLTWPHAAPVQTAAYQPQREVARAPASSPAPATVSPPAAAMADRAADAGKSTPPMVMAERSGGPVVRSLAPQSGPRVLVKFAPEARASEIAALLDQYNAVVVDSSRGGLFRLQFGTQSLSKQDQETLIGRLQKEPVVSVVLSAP
stdout: 14.3

This collection of values is drawn from paper PMC3817407.
